In this section we review reported melting point values for a set of compounds.
recorded.metric: melting point

# smiles.string, recorded.metric, reported.value
measured = [
    ("COC(=O)[C@]1(C)CCC[C@@]2(C)[C@@H]3CC[C@@]4(CO)C[C@]3(CC[C@@H]21)C[C@H]4N[C@@H](C)c1ccc2ccccc2c1", "melting point", "105 to 108 °C"),
    ("COC(=O)[C@]1(C)CCC[C@@]2(C)[C@@H]3CC[C@@]4(CN=[N+]=[N-])C[C@]3(CC[C@@H]21)C[C@H]4O", "melting point", "72 to 74 °C"),
    ("COC(=O)[C@]1(C)CCC[C@@]2(C)[C@@H]3CC[C@@]4(CO)C[C@]3(CC[C@@H]21)C[C@H]4N[C@H](C)c1ccc2ccccc2c1", "melting point", "150 to 153 °C"),
]
